- System: IGROV1 ovarian
- Method: NCI-60 one-dose screen, 48 h (100 = growth as untreated, 0 = no growth, -100 = all killed)
- Assay Setup: 10 µM unless noted
This is part of a sample that, as a whole, favours compounds with a hit. Of some 83,000 tested, about 20% had one in any assay.
Kindly note that classification relies on growth with these boundaries: c1 (below 30%), c2 (30% to below 70%), c3 (70% or more)

CN(C)c1ccc(N=Nc2ccccn2)c(O)c1 :: c1
Cc1nn(-c2ccc(F)cc2)c2ncnc(Nc3ccc(NC(=O)Nc4ccc(Cl)c(C(F)(F)F)c4)cc3)c12 :: c2
COc1ccc(-c2nc3ccc(-c4nc5ccc(N6CCN(c7ccncc7)CC6)cc5[nH]4)cc3[nH]2)cc1OC :: c2
CCCCN1CCCn2c1nc1c2c(=O)n(CCC)c(=O)n1CCC :: c3

In: Record "CCOC(=O)c1sc2nc(-c3cccc(O)c3)nc(N3CCOCC3)c2c1C" — which class?
Out: c1

In: Another compound to look at: "CC1=C/C(=C(\c2ccc(N(C)C)cc2)c2ccc([N+](C)(C)C)cc2)C=CC1=[N+](C)C"
Out: c3

In: Can you check "COc1ccc(CN2c3ccccc3Oc3ccccc32)cc1O" next?
Out: c2

In: Now give it for "COc1cc(-c2nc3ccccc3[nH]2)ccc1OCC(=O)N=Nc1c(O)[nH]c2ccc(Cl)cc12" too.
Out: c1

In: Consider next the compound "O=C(/C=C/c1ccc(C(F)(F)F)cc1)Nc1ccc(C=C2c3ccccc3C(=O)c3ccccc32)cc1" in the same way.
Out: c3

In: Okay, and "O=C(COc1ccc(-c2nc3cc(Cl)c(Cl)cc3[nH]2)cc1)N=Nc1c(O)[nH]c2ccccc12" ?
Out: c2

----------
- Test system: SNB-75 CNS
- Method: NCI-60 one-dose screen, 48 h (100 = growth as untreated, 0 = no growth, -100 = all killed)
- Assay Setup: 10 µM unless noted
This is part of a sample that, as a whole, favours compounds with a hit. Of some 83,000 tested, about 20% had one in any assay.
# note: exactly 40% is not below, so it is no; use yes for growth strictly under it

Would you please look over these solved cases?
CSc1ccc(SC2c3ccc(C)cc3Oc3nc(N)c(C#N)c(N)c32)cc1 (configuration not stated) :: yes
O=C(/C=C/c1ccc(C(F)(F)F)cc1)Nc1ccc(C=C2c3ccccc3C(=O)c3ccccc32)cc1 :: no

In: In plain terms, does "CCCN1CCN(c2ccc3nc(-c4ccc5nc(-c6ccc(OCC)cc6)[nH]c5c4)[nH]c3c2)CC1" come in under 40% for growth?
Out: no

In: Queued: "COc1cc(/C=C/C(=O)c2cccnc2Nc2ccc(F)cc2)cc(OC)c1OC"
Out: yes

In: And then Cc1ccc2oc(=O)cc(C3c4ccc([nH]4)C(c4cc(=O)oc5ccc(C)cc45)c4ccc([nH]4)C(c4cc(=O)oc5ccc(C)cc45)c4ccc([nH]4)C(c4cc(=O)oc5ccc(C)cc45)c4ccc3[nH]4)c2c1 (configuration not stated) , what is it?
Out: yes

In: Try this molecule next: "CC(C)(O)c1cn(CCCCN2C(=O)C(=O)c3ccccc32)nn1"
Out: no

----------
- Tested on: NCI-H23 lung
- Method: NCI-60 one-dose screen, 48 h
- Assay Setup: 10 µM unless noted
This is part of a sample that, as a whole, favours compounds with a hit. Of some 83,000 tested, about 20% had one in any assay. Active and inactive are the calls of the source. The calls were made as follows: active = growth percent below 10; inactive = the rest.
Outcomes you can answer with include only these: 1 (active), -1 (inactive)

CSc1nc(Nc2cccc(NC(=O)/C(C#N)=C/c3c(Cl)cccc3Cl)c2)c(C#N)c(-c2cccc([N+](=O)[O-])c2)n1 :: -1
CCCOc1cc2ccccc2cc1C(=O)Nc1nc(NC)c2c(ccc3nccc32)[nH]1 :: 1
Cc1nn(-c2cc(=O)[nH]c3ccc(Cl)cc23)c(N)c1C#N :: -1
COc1ccc2c(c1)O/C(=C\c1cccc(OCC(=O)Nc3nc4c(s3)CCCC4)c1)C2=O :: -1
O=C1c2ccccc2C(=O)c2c1ccc1[nH]c(-c3cccs3)nc21 :: -1
CC(C)n1c(/C=C/[C@@H](O)C[C@@H](O)CC(=O)O)c(-c2ccc(F)cc2)c2ccccc21 :: -1
N#CCCN=Nc1c(O)[nH]c2ccc([N+](=O)[O-])cc12 :: -1
C[n+]1ccccc1/C=C/c1ccc2cccc(O)c2n1 :: -1

Next up:
In: Hi team, can someone confirm the assay call for "COc1cccc(-c2nc3sccn3c2-c2ccnc(NCCNS(=O)(=O)c3ccccc3)c2)c1" ?
Out: -1
